Origin of the recorded values: patent US20240409645A1

// reported Fold change per item
Biological target: T1, cynomolgus monkey IL-2Rβ/CD122 subunit (cynomolgus monkey, UniProt Q38J85 27-239, limits assumed)
T1 construct: also called Cyno IL-2R subunit
T1 sequence (looked up): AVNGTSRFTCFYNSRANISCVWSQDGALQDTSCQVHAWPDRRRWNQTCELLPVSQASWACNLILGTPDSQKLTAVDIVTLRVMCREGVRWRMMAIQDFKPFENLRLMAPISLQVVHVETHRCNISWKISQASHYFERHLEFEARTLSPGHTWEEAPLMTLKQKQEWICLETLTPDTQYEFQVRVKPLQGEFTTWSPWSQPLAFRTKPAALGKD
Assay: ELISA, bivalent; EC50 cyno vs human subunit
All answers are understood in fold, so give the number only.

Consider the worked cases shown below.
## Input Name the recorded Fold change for 18-MP03C03 VHH-hFc, monospecific bivalent (Fc fusion, IgG1 Fc LALA-PG; not shown: human IgG1 CH2 and CH3 domains (Fc)) QVQLVESGGGLVQPGGSLRLSCAISGGTLDSYGIGWVRQAPGKQREGVSCMSRSDDRTYYADSVKGRFTISKDSAKNTVYLQMTSLKPEDTAVYYCAAVDAYGCSLVQPTTYDFWGLGTQVTVSS .
## Output 1

## Input Next entry: 15-MP02E06 VHH-hFc, monospecific bivalent (Fc fusion, IgG1 Fc LALA-PG; also called anti-IL-2Rβ Ab 15; not shown: human IgG1 CH2 and CH3 domains (Fc)) QVQLVESGGGSVQPGGSLRLSCAASGFTFSNYAMSWVRQAPGKGLEWVASITGFGRGTDYADSVKGRFTISRDNAEDTLYLQMNSLKPEDTAVYYCAKYSSSTYYPPTPARGRDYRGQGTQVTVSS
## Output 4.3

## Input Next entry: 22-MP03F12 VHH-hFc, monospecific bivalent (Fc fusion, IgG1 Fc LALA-PG; not shown: human IgG1 CH2 and CH3 domains (Fc)) EVQLVESGGGLVQAGGSLRLSCAASGSIFSINAMAWFRQVPGMERELVAAISRDGGASVYRDSVKGRFTISRDNSKNTVYLQMNTLKPEDTAIYVCAATRAIGWTARWITTDFDFWGQGTQVTVSS
## Output 1

## Input Next entry: 23-MP06F03 VHH-hFc, monospecific bivalent (Fc fusion, IgG1 Fc LALA-PG; not shown: human IgG1 CH2 and CH3 domains (Fc)) QVQLVESGGGLVQAGGSLRLSCAVSGDVFVRYTMAWFRQAPGKEREFVASVTDSGRTTDYVHSVKGRFTVSRDNAKNTVYLQMNNLKPEDTAVYYCAANTDYFQIKSLDANTWGQGTQVTVSS
## Output 1.3

## Input Next entry: 166-MP02H08 VHH-hFc, monospecific bivalent (Fc fusion, IgG1 Fc LALA-PG; not shown: human IgG1 CH2 and CH3 domains (Fc)) EVQLVESGGGLVQAGDSLRISCAASGRIFSNYAMGWFRQAPGKETEFVAGITHLTSTTHYADSVKGRFTISRDNAKNTMHLQMNNLKPEDTALYYCAADRNIKITADWSYWGQGTQVTVAS
## Output 1.2

Others:
## Input Name the recorded Fold change for 168-MP02B09 VHH-hFc, monospecific bivalent (Fc fusion, IgG1 Fc LALA-PG; not shown: human IgG1 CH2 and CH3 domains (Fc)) EVQLVESGGGLVQAGGSLRLSCAASGRTFSTTEMGWFRQAPGKEREFVAAITWTGRGTMYAESVEGRFTISRENAKNMVYLQMNSLKPEDTAIYYCAAARRGRAAVRSEGGYDFWGQGTQVTVSS .
## Output 2.4

## Input Next entry: 193-MP02F12 VHH-hFc, monospecific bivalent (Fc fusion, IgG1 Fc LALA-PG; not shown: human IgG1 CH2 and CH3 domains (Fc)) QLQLVESGGGLVQTGTSLRLSCAASGHTSRINAMGWFRQFPGKEREFVAAISRNGGSTVYVDSVKGRFTISRDNAKSTVYLQMNSLKPEDTAVYYCTATDAVGWTTRWMTADFGFWGQGTQVTVSS
## Output 1.1

## Input Next entry: 161-MP02C08 VHH-hFc, monospecific bivalent (Fc fusion, IgG1 Fc LALA-PG; not shown: human IgG1 CH2 and CH3 domains (Fc)) EVQLVESGGGLVQAGGSLRLSCAASGSTFSRQPMYWFRQAPGKEREFVAAITWSGRGTLYADSVEGRFTISRDNAKNTVYLQMNSLRPDDTAAYYCAAGPYGDAAYRHGRIDSWGQGTQVTVSS
## Output 1.9
